Values were extracted from patent US20250163066A1.

# TARGET_OR_SYSTEM: UniProt:Q9UDY8
# Sequence (Q9UDY8 whole entry): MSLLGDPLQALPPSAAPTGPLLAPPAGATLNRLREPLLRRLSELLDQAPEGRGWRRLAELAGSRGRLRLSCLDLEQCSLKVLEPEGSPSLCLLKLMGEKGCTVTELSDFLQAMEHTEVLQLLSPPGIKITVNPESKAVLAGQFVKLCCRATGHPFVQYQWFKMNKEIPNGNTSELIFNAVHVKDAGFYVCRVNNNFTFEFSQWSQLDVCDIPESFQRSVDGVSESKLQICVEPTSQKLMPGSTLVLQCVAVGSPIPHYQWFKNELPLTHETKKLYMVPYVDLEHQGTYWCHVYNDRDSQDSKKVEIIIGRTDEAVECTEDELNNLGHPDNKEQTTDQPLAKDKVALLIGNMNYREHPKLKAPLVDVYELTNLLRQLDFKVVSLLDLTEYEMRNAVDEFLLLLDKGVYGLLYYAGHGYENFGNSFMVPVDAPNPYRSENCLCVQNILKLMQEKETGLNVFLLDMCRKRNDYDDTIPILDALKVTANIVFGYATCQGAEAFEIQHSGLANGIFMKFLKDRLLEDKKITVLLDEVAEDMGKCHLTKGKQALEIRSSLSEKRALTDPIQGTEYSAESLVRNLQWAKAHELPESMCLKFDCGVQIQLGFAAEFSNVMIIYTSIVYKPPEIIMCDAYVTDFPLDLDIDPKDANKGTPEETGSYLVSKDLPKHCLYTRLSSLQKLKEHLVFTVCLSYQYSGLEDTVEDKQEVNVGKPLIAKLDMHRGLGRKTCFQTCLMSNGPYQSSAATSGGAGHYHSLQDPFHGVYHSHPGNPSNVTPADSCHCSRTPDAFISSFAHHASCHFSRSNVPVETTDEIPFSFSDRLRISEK
# ASSAY_REMARKS: MALT1 enzymatic activity inhibition (fluorescence, Ac-LRSR-AMC substrate)
# Assay type: biochemical
# RUN_CONDITIONS: recombinant MALT1 1.5 ng/μl, Ac-LRSR-AMC 1 μM
REPORTED_PROPERTY: EC50

Exercise: What value of measured EC50 is listed for Cc1cc(NC(=O)Nc2cnc3ccnn3c2C2CCCC2)cnc1-c1noc(CCCN2CCN(c3ccc4c(c3)CN(C3CCC(=O)NC3=O)C4=O)CC2)n1 (stereo not drawn) [Compound 18] ?
Key: ≤ 0.2 µM

Exercise: What value of measured EC50 is listed for O=C(CCOCCN1CCN(c2ccc3c(c2)CN(C2CCC(=O)NC2=O)C3=O)CC1)NCCOc1ccc(Cl)cc1NC(=O)Nc1cnc2ccnn2c1C1CCCC1 (stereo not drawn) [Compound 43] ?
Key: 1 to 5 µM

Exercise: What value of measured EC50 is listed for O=C1CCC(N2Cc3cc(N4CCN(C(=O)CCCCn5cc(NC(=O)Nc6cnc7ccnn7c6C6CCCC6)c(C(F)(F)F)n5)CC4)ccc3C2=O)C(=O)N1 (stereo not drawn) [Compound 151] ?
Key: 1 to 5 µM
